meta.source: the supplement of paper PMC13380429

# Tested on: Vero E6 infected with SARS-CoV-2
# measurement_notes: SARS-CoV-2 infection rate relative to infected DMSO; higher = more infection, active = 60 or less
# recorded_conditions: 24 h
attribute_measured: SARS-CoV-2 infection rate (%)
The response must be a number in % with no trailing unit.

CCN(CC)Cc1nccn1-c1ccc([N+](=O)[O-])cc1C(=O)c1ccccc1Cl [nizofenone] (10 µM) : 98
O=C(NCCO)c1cc(C(=O)NCCO)cc(C(=O)NCCO)c1 (10 µM) : 102
Nc1nc(Cl)nc2c1ncn2[C@@H]1O[C@H](CO)[C@@H](O)[C@H]1O [2-chloroadenosine] (10 µM) : 105
COc1cc2nc(N3CCCN(C)CC3)nc(NC3CCN(Cc4ccccc4)CC3)c2cc1OC (0.833333 µM) : 73.5
Nc1ccn([C@@H]2O[C@H](CO)[C@@H](O)[C@@H]2O)c(=O)n1 [cytarabine] (0.833333 µM) : 97

Any idea what its SARS-CoV-2 infection rate is? The compound is COc1nccc(-c2c(-c3ccc(F)cc3)ncn2C2CCNCC2)n1 (10 µM) 98.5

Any idea what its SARS-CoV-2 infection rate is? The compound is CCOCCn1c(N2CCCN(C)CC2)nc2ccccc21 [emedastine] (10 µM) 100

Any idea what its SARS-CoV-2 infection rate is? The compound is C=CC(=O)Nc1cc2c(Nc3ccc(F)c(Cl)c3)ncnc2cc1OCCCN1CCOCC1 [canertinib] (10 µM) 107

Any idea what its SARS-CoV-2 infection rate is? The compound is NCC1(CC(=O)O)CCCCC1 [gabapentin] (10 µM) 109

Any idea what its SARS-CoV-2 infection rate is? The compound is CC(C)n1c(=O)n(C(=O)N[C@H]2C[C@H]3CC[C@@H](C2)N3C)c2ccccc21 (10 µM) 106

Any idea what its SARS-CoV-2 infection rate is? The compound is O=c1n(CCCN2CCN(c3cccc(Cl)c3)CC2)nc2ccccn12 [trazodone] (10 µM) 116

Any idea what its SARS-CoV-2 infection rate is? The compound is CC(=O)O[C@H]1C[C@@]2(C)[C@@H](C[C@@H](O)[C@H]3[C@@]4(C)CC[C@@H](O)[C@@H](C)[C@@H]4CC[C@@]32C)/C1=C(\CCC=C(C)C)C(=O)O [fusidic-acid] (10 µM) 98

Any idea what its SARS-CoV-2 infection rate is? The compound is c1ccc(C2CN3CCSC3=N2)cc1 (configuration not stated) [tetramisole] (10 µM) 104

Any idea what its SARS-CoV-2 infection rate is? The compound is Cc1onc(-c2ccccc2Cl)c1C(=O)N[C@@H]1C(=O)N2[C@@H]1SC(C)(C)[C@@H]2C(=O)O [cloxacillin] (10 µM) 99.5

Any idea what its SARS-CoV-2 infection rate is? The compound is CC(C)[C@H](NS(=O)(=O)c1ccc(-c2ccc(Br)cc2)cc1)C(=O)O (10 µM) 107

Any idea what its SARS-CoV-2 infection rate is? The compound is CC(=O)OCC(=O)[C@@]1(O)CC[C@H]2[C@@H]3CCC4=CC(=O)CC[C@]4(C)[C@H]3C(=O)C[C@@]21C [cortisone-acetate] (10 µM) 87.5

Any idea what its SARS-CoV-2 infection rate is? The compound is Clc1cccc(SC2CCNCC2)n1 [anpirtoline] (10 µM) 106
